Quick reference: Ki of the listed items.
target: HCV NS3 protease (Hepatitis C virus genotype 1a); construct: more particularly HCV NS3 proteases; assay: Enzyme inhibition of HCV NS3 serine protease (cleavage of peptide substrate / EDVV AbuC-p-nitroanilide, with or without NS4A); format: biochemical; settings: Enzyme inhibition data; Ki from rate vs [inhibitor] plots, Morrison tight binding competitive inhibition fit; 30 C, pH 7.8; read-out: Ki
Sequence (P27958 1027-1208): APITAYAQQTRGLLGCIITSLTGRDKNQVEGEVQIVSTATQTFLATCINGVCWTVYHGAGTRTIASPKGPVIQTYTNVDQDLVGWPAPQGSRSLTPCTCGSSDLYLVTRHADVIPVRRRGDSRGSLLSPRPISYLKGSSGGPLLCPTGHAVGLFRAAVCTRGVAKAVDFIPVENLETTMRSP
Starred links: 1 amine or outer side, 2 acyl side, 3 side chain; linkers in the order of their positions; H or OH if unused. Non-standard residues stand in square brackets, D forms with d. Residues, ends and D or L forms follow the SMILES beside them. Groups on a side chain read outwards from the residue. *: point of attachment. Pyrazinecarbonyl = O=C(c1cnccn1)*; Hyp = O=C(O)[CH]1C[CH](O)CN1; X43 = Clc1cc(N*)cc(Cl)n1; Abu = CC[CH](N)C(=O)O; X22 = N#Cc1cccc(C*)c1; CO = O=C([*:1])[*:2]
measured_metric: Ki

compound: CCC(C=O)NC(=O)C1CC(OC(=O)Nc2cc(Cl)nc(Cl)c2)CN1C(=O)C(NC(=O)C(NC(=O)c1cnccn1)C(C)C)C(C)C (centres unmarked) [Compound 51] (Pyrazinecarbonyl-VV[Hyp]([CO-X43])[Abu]-aldehyde; configuration not given here)
measured_metric: Ki
test_value: 1 to 100 µM

compound: CCC(C=O)NC(=O)C1CC(OCc2cccc(C#N)c2)CN1C(=O)C(NC(=O)C(NC(=O)c1cnccn1)C(C)C)C(C)C (centres unmarked) [Compound 21] (Pyrazinecarbonyl-VV[Hyp](X22)[Abu]-aldehyde; configuration not given here)
measured_metric: Ki
test_value: 1 to 100 µM
